Give koff for every item shown.
SYSTEM UNDER TEST: human full-length VWF (human, UniProt P04275 764-2813)
METHOD: SPR, Biacore T200, antibody captured on Protein A, full-length VWF as analyte, single-cycle kinetics;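 note: running buffer HEPES pH 7.4 with 300 mM NaCl, 3 mM EDTA and 0.05% P20, about 350 RU antibody captured, in-line reference flow cell subtracted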
Answers are plain numbers, in s⁻¹.

Recorded results for 3 binders are shown here.
3-H9_VH-par_L0 (antibody, human IgG1, kappa, V domains shown, also called 3-H9_L0 (hIgG1K)) VH: SQSLEESGGRLVTPGTPLTLTCSVSGFSLSNYDMSWVRQAPGKGLEWIGSIHAIGITYYANWAEGRFTISKTSTTVDLKMTSLTTEDTATYFCARGLVDLNMWGPGTLVTVSS VL: DIQMTQSPSSLSASVGDRVTITCQSSQSVYSNNLLSWYQQKPGKAPKLLIYDASTLESGVPSRFSGSGSGTDFTLTISSLQPEDFATYYCQGSYYSSGWYNTFGGGTKVEIKT : 2.12e-05
3-H9_H2_L0 (antibody, human IgG1, kappa, V domains shown, humanised, human IgG1 kappa) VH: QQLVESGGGVVQPGRSLRLSCAASGFSLSNYDMSWVRQAPGKGLEWIGSIHAIGITYYANWAEGRFTISRDKNTVYLQMNSLRAEDTATYFCARGLVDLNMWGQGTLVTVSS VL: DIQMTQSPSSLSASVGDRVTITCQSSQSVYSNNLLSWYQQKPGKAPKLLIYDASTLESGVPSRFSGSGSGTDFTLTISSLQPEDFATYYCQGSYYSSGWYNTFGGGTKVEIKT : 8.74e-07
1-G5_H0_VL-par rep (antibody, human IgG1, kappa, V domains shown, also called 1-G5_H0 (hIgG1)) VH: QVQLVESGGGVVQPGRSLRLSCAASGFTFSSYDMTWVRQAPGKGLEWVASIHATGITFYANWAKGRFTISRDNSKNTLYLQMNSLRAEDTAVYYCARGLVDLNMWGQGTLVTVSS VL: DPVMTQTASSVSAAVGGTVTINCQASQSVYNNNYLSWYQQKPGQPPKLLIYDASTLASGVPSRFSGNGSGTQFTLTISGVQCDDAATYYCQGSYYSGGWDTAFGGGTKVVVKT : 7.2e-07

Consider the additional binder presented here.
Query :: Fill in: koff of 1-G5_H2_VL-par (antibody, human IgG1, kappa, V domains shown, also called 1-G5_H2 (hIgG1)) VH: QQLVESGGGVVQPGRSLRLSCAASGFSLSSYDMTWVRQAPGKGLEWIGSIHATGITFYANWAKGRFTTSKDSNTVYLQMNSLRAEDTATYFCARGLVDLNMWGQGTLVTVSS VL: DPVMTQTASSVSAAVGGTVTINCQASQSVYNNNYLSWYQQKPGQPPKLLIYDASTLASGVPSRFSGNGSGTQFTLTISGVQCDDAATYYCQGSYYSGGWDTAFGGGTKVVVKT is ___
Result :: 3.78e-07
